Provide the recorded IC50 for the entries that follow.
System: MCF7
Assay: Cytotoxicity against estrogen receptor-positive human MCF7 cells assessed as cell viability after 72 hrs by MTT assay
Assay type: functional, cell-based
Details: MCF7, 72 h
Numeric answer only, unit µM assumed.

Problem: # lookup: IC50 of "O=C(/C=C/C[C@H]1CC=CC(=O)O1)CCc1cccc(O)c1"
Solution: 4.32

Problem: # lookup: IC50 of "CCCCCCCC/C=C\CCCCCCCC(=O)/C=C/C[C@H]1CC=CC(=O)O1"
Solution: 2.7

Problem: # lookup: IC50 of "CCCCCCCCCCCCCCCCCC(=O)/C=C/C[C@@H]1CC=CC(=O)O1"
Solution: 2.32

Problem: # lookup: IC50 of "CCCCCCCCCCCCCCCC(=O)/C=C/C[C@@H]1CC=CC(=O)O1"
Solution: 3.96

====

Test system: MDA-MB-231
Experiment: Cell cycle arrest in estrogen receptor-negative human MDA-MB-231 cells assessed as accumulation at G2/M phase at 2 uM after 24 hrs by Propidium iodide staining-based flow cytometric analysis (reference value: 26.33 +/- 3.05%)
Assay type: functional
observed_property: Activity (%)
Numeric answer only, unit % assumed.

Problem: Give Activity (MDA-MB-231) of the following compound: "O=C(/C=C/C[C@@H]1CC=CC(=O)O1)CCc1ccccc1"
Solution: 21.66

Problem: Give Activity (MDA-MB-231) of the following compound: "CC(=O)/C=C/C[C@@H]1CC=CC(=O)O1"
Solution: 26

Problem: Give Activity (MDA-MB-231) of the following compound: "CCCCCCCCCCCCCCCCCC(=O)/C=C/C[C@@H]1CC=CC(=O)O1"
Solution: 19.6

Problem: Give Activity (MDA-MB-231) of the following compound: "CCCCCCCC/C=C\CCCCCCCC(=O)/C=C/C[C@H]1CC=CC(=O)O1"
Solution: 21.3

Problem: Give Activity (MDA-MB-231) of the following compound: "CCCCCCCCCCCCCCCCC/C=C/C(=O)/C=C/C[C@H]1CC=CC(=O)O1"
Solution: 19.3

====

System: MCF7
Test: Cytotoxicity against estrogen receptor-positive human MCF7 cells assessed as cell viability after 72 hrs by MTT assay
Assay type: functional, cell-based
Conditions: MCF7, 72 h
Please respond with y when measured IC50 is strictly beneath 4 µM, and with n in all other cases.

Problem: Below 4 µM on IC50? Entry "O=C(/C=C/C[C@H]1CC=CC(=O)O1)CCc1ccco1"
Solution: y

Problem: Below 4 µM on IC50? Entry "CCCCCCCCCCCCCCCCCC(=O)/C=C/C[C@H]1CC=CC(=O)O1"
Solution: n

Problem: Below 4 µM on IC50? Entry "O=C(/C=C/C[C@H]1CC=CC(=O)O1)CCc1ccc2ccccc2c1"
Solution: n

Problem: Below 4 µM on IC50? Entry "O=C(/C=C/C[C@@H]1CC=CC(=O)O1)CCc1cccc(Oc2ccccc2)c1"
Solution: n

Problem: Below 4 µM on IC50? Entry "O=C(/C=C/C[C@@H]1CC=CC(=O)O1)CCc1cccc(O)c1"
Solution: n

Problem: Below 4 µM on IC50? Entry O=C(/C=C/C[C@@H]1CC=CC(=O)O1)CCc1ccccc1 [R-RUGULACTONE]
Solution: y

Problem: Below 4 µM on IC50? Entry "CCCCCCCCCCCCCCCCCCCC(=O)/C=C/C[C@H]1CC=CC(=O)O1"
Solution: y

Problem: Below 4 µM on IC50? Entry "CCCCCCCCCCCCCCCCC/C=C/C(=O)/C=C/C[C@H]1CC=CC(=O)O1"
Solution: y

Problem: Below 4 µM on IC50? Entry "CCCCCCCC/C=C\CCCCCCCC(=O)/C=C/C[C@@H]1CC=CC(=O)O1"
Solution: n
